Origin of values: patent US20070020327A1

# study_target: HLA-A*0301 (human)
# experiment_description: competition with 125I-labelled standard peptide for purified HLA, gel filtration
Here, each record is paired with measured binding affinity ratio (IC50 of standard peptide / IC50 of test peptide) data.

Some entries whose results are on file:
KSLYESWTK (modifications not checked) [… (PSM, position 491)] : 0.4
LGEYIRKRYR (modifications not checked) [PAP 81 peptide …] : 0.0003
MSLLKNRFLR (modifications not checked) [… (PSA, position 99)] : 0.007

stdin: Need binding affinity ratio (IC50 of standard peptide / IC50 of test peptide), item LVFRHGDR (modifications not checked) [LVFRKGDR (PAP, position 40)]
stdout: 0.0003

stdin: Fill blank: measured binding affinity ratio (IC50 of standard peptide / IC50 of test peptide) of the binder LGIASGRAR (modifications not checked) [PSM 528 peptide …] is ____.
stdout: 0.0006

stdin: // query binding affinity ratio (IC50 of standard peptide / IC50 of test peptide) value for entry FSERLQDFDK (modifications not checked) [… (PSM, position 646, 10 amino acids)]
stdout: 0.0003
